Here the recorded molar heat capacity at constant pressure is given for each entry.
- assay explanation: molar heat capacity at constant pressure
- assay conditions: 325 K; 101.33 kPa; Crystal; Small sample (50 mg) DSC
All answers are understood in J/K/mol, so give the number only.

Answered examples (2):
molecule	metric	reported
OC[C@@H](O)[C@@H](O)CO	molar heat capacity at constant pressure	181.48
OC[C@@H](O)[C@@H](O)[C@H](O)[C@H](O)CO	molar heat capacity at constant pressure	254.58

Which molar heat capacity at constant pressure is reported for this molecule? `OC[C@@H](O)[C@H](O)[C@@H](O)CO`
232.15

----------
- assay explanation: molar heat capacity at constant pressure
- assay conditions: 295.15 K; 101.33 kPa; Crystal; Small sample (50 mg) DSC
metric: molar heat capacity at constant pressure (J/K/mol)
All answers are understood in J/K/mol, so give the number only.

Answered examples (2):
compound	reported
OC[C@@H](O)[C@@H](O)[C@H](O)[C@H](O)CO	227.7
O[C@H]1[C@H](O)[C@@H](O)[C@H](O)[C@@H](O)[C@H]1O [cis-1,2,3,5-trans-4,6-cyclohexanehexol]	215.31

Which molar heat capacity at constant pressure is reported for this compound? OC[C@H](O)C(O)[C@@H](O)CO [L-(-)-arabitol]
204.77

Which molar heat capacity at constant pressure is reported for this compound? `OC[C@@H](O)[C@@H](O)CO`
162.81

Which molar heat capacity at constant pressure is reported for this compound? `OC[C@@H](O)[C@H](O)[C@@H](O)CO`
207.02

Which molar heat capacity at constant pressure is reported for this compound? `OC[C@@H](O)C(O)[C@H](O)CO`
198.8

----------
Here the recorded molar heat capacity at constant pressure is given for each entry.
- assay explanation: molar heat capacity at constant pressure
- assay conditions: 414.15 K; 101.33 kPa; Liquid; Small sample (50 mg) DSC
All answers are understood in J/K/mol, so give the number only.

compound	molar heat capacity at constant pressure (J/K/mol)
OC[C@@H](O)[C@H](O)[C@@H](O)CO [xylitol]	443.78
OC[C@H](O)C(O)[C@@H](O)CO [L-(-)-arabitol]	450.82
OC[C@@H](O)[C@@H](O)CO [meso-1,2,3,4-butanetetrol]	354.92

Which molar heat capacity at constant pressure is reported for this compound? OC[C@@H](O)C(O)[C@H](O)CO [D-arabitol]
451.47

----------
- assay explanation: molar heat capacity at constant pressure
- assay conditions: 310.15 K; 101.33 kPa; Crystal; Small sample (50 mg) DSC
For each record, check the reported molar heat capacity at constant pressure: if it is below 200 J/K/mol write Condition met, else write Condition not met.

Reference set (5 entries):
compound	assigned category
O[C@H]1[C@H](O)[C@@H](O)[C@H](O)[C@@H](O)[C@H]1O [cis-1,2,3,5-trans-4,6-cyclohexanehexol]	Condition not met
OC[C@@H](O)[C@H](O)[C@@H](O)CO	Condition not met
OC[C@H](O)C(O)[C@@H](O)CO [L-(-)-arabitol]	Condition not met
OC[C@@H](O)[C@@H](O)CO	Condition met
OC[C@@H](O)[C@@H](O)[C@H](O)[C@H](O)CO	Condition not met

Alright, here's another compound for you.
Does the reported molar heat capacity at constant pressure of `OC[C@@H](O)C(O)[C@H](O)CO` stay below 200 J/K/mol?
Condition not met

Sourced from the NIST ThermoML archive (doi:10.1016/j.jct.2017.08.004)
